Below, each of the molecules is paired with its reported pIC50 value.
- TEST SYSTEM: GST-Syk Full Protein (human) (Homo sapiens)
- PROTOCOL DETAILS: Syk kinase inhibition test (HTRF method)
- Type: biochemical
- CONDITION SUMMARY: Tables 2-x, thiophene compounds B; read-out: sykHTRK ave IC50
pIC50: −log10 of the molar value.
MEASURED PROPERTY: pIC50

[
  {
    "MOLECULE": "CC(=O)c1ccc(-c2ncc(C)c(Nc3cc(C)ccn3)n2)s1",
    "VALUE": "6.00 to 7.00"
  },
  {
    "MOLECULE": "Cc1ccnc(Nc2cccc(-c3ccc(C(=O)NC(C)(C)CC(=O)O)s3)n2)c1",
    "VALUE": "6.00 to 7.00"
  },
  {
    "MOLECULE": "CC(=O)OC(C)c1ccc(-c2cccc(Nc3cc(C)ccn3)n2)s1 (stereo not drawn)",
    "VALUE": "6.00 to 7.00"
  }
]

----------
- TEST SYSTEM: GST-Syk Full Protein (human) (Homo sapiens, UniProt P43405)
- PROTOCOL DETAILS: Syk kinase inhibition test (HTRF method)
- Assay type: biochemical
- CONDITION SUMMARY: HTRF, 100 μM ATP, 30 min room temperature, average; read-out: sykHTRF ave IC50
Below, each of the molecules is paired with its reported IC50 value.

[
  {
    "QUERY SMILES": "Cc1ccnc(Nc2cccc(-c3cnc(CCC4CCNCC4)s3)n2)c1",
    "IC50": "< 0.1 µM"
  },
  {
    "QUERY SMILES": "CC(=O)N[C@@H](CCC(=O)OCc1ccccc1)c1ncc(-c2cccc(Nc3cc(C)ccn3)n2)s1",
    "IC50": "0.1 to 1 µM"
  },
  {
    "QUERY SMILES": "CC(=O)N[C@@H](COCc1ccccc1)c1ncc(-c2cccc(Nc3cc(C)ccn3)n2)s1",
    "IC50": "> 1 µM"
  },
  {
    "QUERY SMILES": "COC(=O)C(C)(C)NC(=O)c1ncc(-c2cccc(Nc3cc(C)ccn3)n2)s1",
    "IC50": "0.1 to 1 µM"
  },
  {
    "QUERY SMILES": "CC(=O)NC1CCN(Cc2ncc(-c3cccc(Nc4cc(C)ccn4)n3)s2)CC1",
    "IC50": "> 1 µM"
  },
  {
    "QUERY SMILES": "Cc1ccnc(Nc2cccc(-c3cnc(CCc4ccc(NC(=O)CO)cc4)s3)n2)c1",
    "IC50": "< 0.1 µM"
  },
  {
    "QUERY SMILES": "Cc1ccnc(Nc2cccc(-c3cnc([C@@H](O)CCC(=O)O)s3)n2)c1",
    "IC50": "0.1 to 1 µM"
  },
  {
    "QUERY SMILES": "Cc1ccnc(Nc2cccc(-c3cnc(C(=O)NCCCO)s3)n2)c1",
    "IC50": "0.1 to 1 µM"
  },
  {
    "QUERY SMILES": "Cc1ccnc(Nc2cccc(-c3cnc(COC(=O)NCC4(O)CCCCC4)s3)n2)c1",
    "IC50": "0.1 to 1 µM"
  }
]

----------
Below, each of the molecules is paired with its reported pIC50 value.
- TEST SYSTEM: GST-Syk Full Protein (human) (Homo sapiens, UniProt P43405)
- PROTOCOL DETAILS: Syk kinase inhibition test (HTRF method)
- Type: biochemical
- CONDITION SUMMARY: Tables 2-x, thiophene compounds B; read-out: sykHTRK ave IC50
pIC50: −log10 of the molar value.
MEASURED PROPERTY: pIC50

[
  {
    "QUERY SMILES": "COC(=O)CCNC(=O)c1ccc(-c2cccc(Nc3cc(C)ccn3)n2)s1",
    "MEASURED PROPERTY": "pIC50",
    "VALUE": "6.00 to 7.00"
  },
  {
    "QUERY SMILES": "CC(=NO)c1sc(-c2cccc(Nc3cc(C)ccn3)n2)cc1C",
    "MEASURED PROPERTY": "pIC50",
    "VALUE": "6.00 to 7.00"
  },
  {
    "QUERY SMILES": "CC(=O)c1ccc(-c2cccc(Nc3cc(NC(C)C)ccn3)n2)s1",
    "MEASURED PROPERTY": "pIC50",
    "VALUE": "< 6.00"
  }
]

----------
- TEST SYSTEM: GST-Syk Full Protein (human) (Homo sapiens, UniProt P43405)
- PROTOCOL DETAILS: Syk kinase inhibition test (HTRF method)
- Type: biochemical
- CONDITION SUMMARY: HTRF, 100 μM ATP, 30 min room temperature, average; read-out: sykHTRF ave IC50
pIC50: −log10 of the molar value.

[
  {
    "COMPOUND": "CC(=O)N[C@H](c1ccc(OCc2ccccc2)cc1)c1ncc(-c2cccc(Nc3cc(C)ccn3)n2)s1",
    "TEST SYSTEM": "GST-Syk Full Protein (human) (Homo sapiens, UniProt P43405)",
    "pIC50": "6.00 to 7.00"
  },
  {
    "COMPOUND": "Cc1ccnc(Nc2cccc(-c3cnc([C@H]4CC[C@H](CO)CC4)s3)n2)c1",
    "TEST SYSTEM": "GST-Syk Full Protein (human) (Homo sapiens, UniProt P43405)",
    "pIC50": "> 7.00"
  },
  {
    "COMPOUND": "Cc1ccnc(Nc2cccc(-c3cnc([C@H](N)c4ccc(OCc5ccccc5)cc4)s3)n2)c1",
    "TEST SYSTEM": "GST-Syk Full Protein (human) (Homo sapiens, UniProt P43405)",
    "pIC50": "6.00 to 7.00"
  },
  {
    "COMPOUND": "Cc1ccnc(Nc2cccc(-c3cnc([C@H](C)NC(=O)CC(=O)O)s3)n2)c1",
    "TEST SYSTEM": "GST-Syk Full Protein (human) (Homo sapiens, UniProt P43405)",
    "pIC50": "6.00 to 7.00"
  },
  {
    "COMPOUND": "CCOC(=O)CNC(=O)NCc1ncc(-c2cccc(Nc3cc(C)ccn3)n2)s1",
    "TEST SYSTEM": "GST-Syk Full Protein (human) (Homo sapiens, UniProt P43405)",
    "pIC50": "6.00 to 7.00"
  },
  {
    "COMPOUND": "CC(=O)N[C@@H](C)c1nc(C(=O)O)c(-c2cccc(Nc3cc(C)ccn3)n2)s1",
    "TEST SYSTEM": "GST-Syk Full Protein (human) (Homo sapiens, UniProt P43405)",
    "pIC50": "< 6.00"
  },
  {
    "COMPOUND": "Cc1ccnc(Nc2cccc(-c3cnc([C@H]4CC[C@H](C(=O)N5CCC(NC(=O)CO)C5)CC4)s3)n2)c1 (some centres unmarked)",
    "TEST SYSTEM": "GST-Syk Full Protein (human) (Homo sapiens, UniProt P43405)",
    "pIC50": "6.00 to 7.00"
  },
  {
    "COMPOUND": "CC(=O)N[C@@H](C)c1nc(CO)c(-c2cccc(Nc3cc(C)ccn3)n2)s1",
    "TEST SYSTEM": "GST-Syk Full Protein (human) (Homo sapiens, UniProt P43405)",
    "pIC50": "< 6.00"
  },
  {
    "COMPOUND": "Cc1ccnc(Nc2cccc(-c3cnc(C4CCN(C(=O)C5CCNCC5)CC4)s3)n2)c1",
    "TEST SYSTEM": "GST-Syk Full Protein (human) (Homo sapiens, UniProt P43405)",
    "pIC50": "6.00 to 7.00"
  },
  {
    "COMPOUND": "CC(=O)N1C[C@H](OCc2ccccc2)C[C@H]1c1ncc(-c2cccc(Nc3cc(C)ccn3)n2)s1",
    "TEST SYSTEM": "GST-Syk Full Protein (human) (Homo sapiens, UniProt P43405)",
    "pIC50": "6.00 to 7.00"
  },
  {
    "COMPOUND": "CC(=O)N[C@@H](C)c1ncc(-c2cccc(Nc3cc(CC(=O)O)ccn3)n2)s1",
    "TEST SYSTEM": "GST-Syk Full Protein (human) (Homo sapiens, UniProt P43405)",
    "pIC50": "< 6.00"
  },
  {
    "COMPOUND": "Cc1ccnc(Nc2cccc(-c3cnc(CNCCO)s3)n2)c1",
    "TEST SYSTEM": "GST-Syk Full Protein (human) (Homo sapiens, UniProt P43405)",
    "pIC50": "6.00 to 7.00"
  },
  {
    "COMPOUND": "CC(=NO)c1ncc(-c2cccc(Nc3cc(C)ccn3)n2)s1",
    "TEST SYSTEM": "GST-Syk Full Protein (human) (Homo sapiens, UniProt P43405)",
    "pIC50": "> 7.00"
  },
  {
    "COMPOUND": "Cc1ccnc(Nc2cccc(-c3cnc(CCc4ccc(C(=O)NCCO)cc4)s3)n2)c1",
    "TEST SYSTEM": "GST-Syk Full Protein (human) (Homo sapiens, UniProt P43405)",
    "pIC50": "> 7.00"
  }
]
